- Assayed Target: c-Met (Homo sapiens, UniProt P08581)
- Construct: Kinases are expressed as either kinase domains or full length constructs; made in house
- Sequence (P08581 25-1390): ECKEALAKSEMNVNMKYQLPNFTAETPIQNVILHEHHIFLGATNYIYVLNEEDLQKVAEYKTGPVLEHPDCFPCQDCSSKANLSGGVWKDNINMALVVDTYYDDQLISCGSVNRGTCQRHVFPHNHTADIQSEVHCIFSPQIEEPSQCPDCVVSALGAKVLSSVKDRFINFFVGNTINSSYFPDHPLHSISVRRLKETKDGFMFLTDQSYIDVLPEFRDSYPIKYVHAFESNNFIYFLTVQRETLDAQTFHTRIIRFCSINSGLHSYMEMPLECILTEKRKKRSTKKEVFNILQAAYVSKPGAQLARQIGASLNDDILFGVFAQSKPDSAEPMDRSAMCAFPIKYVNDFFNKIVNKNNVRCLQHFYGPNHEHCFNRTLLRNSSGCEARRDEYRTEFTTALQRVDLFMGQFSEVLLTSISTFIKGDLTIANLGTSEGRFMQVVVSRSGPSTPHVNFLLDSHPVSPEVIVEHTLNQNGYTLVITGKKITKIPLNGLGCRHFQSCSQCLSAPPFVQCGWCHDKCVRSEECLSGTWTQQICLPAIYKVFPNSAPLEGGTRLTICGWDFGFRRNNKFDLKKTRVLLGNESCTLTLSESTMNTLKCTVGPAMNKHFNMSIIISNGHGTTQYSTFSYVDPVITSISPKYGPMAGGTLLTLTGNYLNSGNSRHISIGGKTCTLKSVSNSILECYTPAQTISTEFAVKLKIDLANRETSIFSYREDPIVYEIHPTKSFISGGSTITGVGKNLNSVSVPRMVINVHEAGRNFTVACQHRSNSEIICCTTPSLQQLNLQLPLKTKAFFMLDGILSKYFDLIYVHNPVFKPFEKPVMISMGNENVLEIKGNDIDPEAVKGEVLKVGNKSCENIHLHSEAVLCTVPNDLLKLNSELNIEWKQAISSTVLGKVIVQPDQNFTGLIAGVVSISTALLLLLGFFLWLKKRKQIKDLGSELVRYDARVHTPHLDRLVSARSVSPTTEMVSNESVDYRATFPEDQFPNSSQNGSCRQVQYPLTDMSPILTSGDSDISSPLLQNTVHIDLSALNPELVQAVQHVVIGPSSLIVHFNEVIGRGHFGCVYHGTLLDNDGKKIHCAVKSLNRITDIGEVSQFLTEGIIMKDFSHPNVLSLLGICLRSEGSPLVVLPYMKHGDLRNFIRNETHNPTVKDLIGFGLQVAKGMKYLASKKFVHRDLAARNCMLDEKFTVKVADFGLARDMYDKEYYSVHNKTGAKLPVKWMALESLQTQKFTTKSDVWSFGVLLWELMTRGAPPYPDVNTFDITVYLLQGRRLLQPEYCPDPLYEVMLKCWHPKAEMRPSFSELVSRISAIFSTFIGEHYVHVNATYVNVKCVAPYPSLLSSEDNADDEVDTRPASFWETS
- Experiment Summary: Kinase inhibition assay (33P transfer), c-Met
- Assay type: biochemical
- Cond: Table 2, kinase inhibition class; read-out: Met-1
Recorded IC50, one value per entry.

                                   compound  observed_measurement
0  CC(C)(C)OC(=O)NCc1ccc(Nc2ncnc(Nc3cc(-c4ccco4)n[nH]3)n2)cc1 [Compound 431]               > 10 µM

Task: Tell me its IC50 given COc1cc(Nc2ncnc(Nc3ccc(Cl)c4ccccc34)n2)cc(OC)c1OC [Compound 1031] as the entry.
Result: > 10.3 µM

Task: Please give measured IC50 of the following entry: COc1cc(Nc2ncnc(NC3CC3c3ccccc3)n2)cc(OC)c1OC (stereo not drawn) [Compound 428]
Result: > 11.4 µM

====

- Assayed Target: Zap-70 (Homo sapiens, UniProt P43403)
- Construct: Kinases are expressed as either kinase domains or full length constructs; made in house
- Sequence (P43403 whole entry, species assumed, the tested form may be a part): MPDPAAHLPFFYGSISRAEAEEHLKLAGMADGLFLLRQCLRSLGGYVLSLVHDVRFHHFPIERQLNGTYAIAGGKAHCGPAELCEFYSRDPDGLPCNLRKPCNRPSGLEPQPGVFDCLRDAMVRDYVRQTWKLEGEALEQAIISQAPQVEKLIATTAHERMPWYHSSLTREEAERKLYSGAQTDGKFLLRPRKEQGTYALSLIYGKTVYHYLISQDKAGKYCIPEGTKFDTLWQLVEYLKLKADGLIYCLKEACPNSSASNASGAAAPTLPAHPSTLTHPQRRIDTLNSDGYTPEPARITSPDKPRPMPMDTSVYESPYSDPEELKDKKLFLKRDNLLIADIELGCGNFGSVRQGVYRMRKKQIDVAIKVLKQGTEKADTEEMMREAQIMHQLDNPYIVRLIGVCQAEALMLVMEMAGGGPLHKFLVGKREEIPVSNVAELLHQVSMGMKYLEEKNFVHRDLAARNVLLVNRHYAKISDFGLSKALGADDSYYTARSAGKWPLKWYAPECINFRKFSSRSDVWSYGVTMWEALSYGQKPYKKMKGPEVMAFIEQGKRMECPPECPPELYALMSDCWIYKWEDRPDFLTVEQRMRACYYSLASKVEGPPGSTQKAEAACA
- Experiment Summary: Kinase inhibition assay (33P transfer), Zap-70
- Type: biochemical
- Cond: Table 3, class symbols; read-out: Zap-1
Catalogue of IC50 readings, one per entry.

// below: answered compounds
>>> df
                            compound_string  measure  observed_measurement
0  C#Cc1cccc(Nc2ncnc(Nc3cc(-c4ccccc4)n[nH]3)n2)c1     IC50             > 12.7 µM
1  COC(=O)c1ccc(-c2cc(Nc3ncnc(Nc4cc(=O)n(-c5ccccc5)[nH]4)n3)[nH]n2)cc1     IC50             > 9.59 µM
2  COc1cc(Nc2ncnc(-c3cccnc3Nc3cccc(Oc4ccccc4)c3)n2)cc(OC)c1OC     IC50             > 8.61 µM
3  CCN(CC)CCN(C)c1ncnc(Nc2ccc(OC)c(OC)c2)n1     IC50             > 12.5 µM
4  O=C(O)Cc1cccc(Nc2ncnc(Nc3ccc(Cl)cc3F)n2)c1     IC50               > 12 µM
5  COc1ccc(Nc2ncnc(N(C)c3ccc(C(=O)O)cc3)n2)cc1OC     IC50             > 11.8 µM
6  COC(=O)c1ccc(-c2cc(Nc3ncnc(NCc4cccs4)n3)[nH]n2)cc1     IC50               > 11 µM
7  Cc1ccc(-c2cc(Nc3ncnc(Nc4cc(C)ccc4C)n3)[nH]n2)cc1     IC50             > 12.1 µM
8  COc1cccc(Nc2ncccc2-c2ncnc(Nc3cc(OC)c(OC)c(OC)c3)n2)c1     IC50             > 9.77 µM
9  Fc1cccc(CNc2nc3ccccc3n2-c2ncnc(Nc3cccc(Cn4ccnn4)c3)n2)c1     IC50             > 9.14 µM

Task: Please indicate IC50 recorded for Cc1ccc2c(c1)CCCN2c1ncnc(NCc2ccc(C(=O)O)cc2)n1
Result: > 12 µM

Task: Indicate its recorded IC50; the compound in question is Cc1ccc2c(c1)CCCN2c1ncnc(Nc2cccc(Cc3nnn[nH]3)c2)n1
Result: 8.76 to 11.3 µM

====

Measured IC50, listed per entry for reference.
- Assayed Target: Zap-70 (Homo sapiens)
- Construct: Kinases are expressed as either kinase domains or full length constructs; made in house
- Experiment Summary: Kinase inhibition assay (33P transfer), Zap-70
- Assay type: biochemical
- Cond: read-out: Zap-1

Consider the following illustrative entries.
>>> df
                                   molecule  observed_measurement
0  CCc1ccc(Nc2nc3ccccc3n2-c2ncnc(Nc3cc(OC)c(OC)c(OC)c3)n2)cc1 [Compound 1048]             > 9.04 µM
1  Cc1cccc(Nc2ncnc(N3CCCc4ccc(C(F)(F)F)cc43)n2)c1 [Compound 582]             > 11.7 µM
2  COc1ccc(CNc2nc3ccccc3n2-c2ncnc(Nc3cc(OC)c(OC)c(OC)c3)n2)cc1 [Compound 1037]             > 8.76 µM

Task: Under Zap-70 (Homo sapiens), report IC50 for COc1cc(Nc2ncnc(N(C)c3ccc4c(cnn4Cc4ccccc4)c3)n2)cc(OC)c1OC [Compound 566]
Result: > 9.04 µM

Task: Write down measured IC50 (Zap-70 (Homo sapiens)) for this molecule. O=c1[nH]c2ccccc2n1-c1ncnc(Nc2ccc(C(F)(F)F)cc2)n1 [Compound 505]
Result: 9.4 to 12.1 µM

Task: Quote IC50 with test system Zap-70 (Homo sapiens) for COc1cc(Nc2ncnc(-c3cccnc3NCc3ccccn3)n2)cc(OC)c1OC [Compound 1080]
Result: > 10.1 µM

Task: Fetch value of IC50 on Zap-70 (Homo sapiens) for COc1cc(Nc2ncnc(Nc3cc(-c4ccc(Cl)c(Cl)c4)n[nH]3)n2)cc(OC)c1OC [Compound 589] .
Result: > 9.21 µM

Task: Please tell me the measured IC50 for COc1cc(Nc2ncnc(-n3c(Nc4cccc5cccnc45)nc4ccccc43)n2)cc(OC)c1OC [Compound 588] ; system: Zap-70 (Homo sapiens).
Result: > 8.64 µM

====

Below, each entry is listed alongside its reported pIC50.
- Assayed Target: UniProt:P07949
- Sequence (P07949 29-1114): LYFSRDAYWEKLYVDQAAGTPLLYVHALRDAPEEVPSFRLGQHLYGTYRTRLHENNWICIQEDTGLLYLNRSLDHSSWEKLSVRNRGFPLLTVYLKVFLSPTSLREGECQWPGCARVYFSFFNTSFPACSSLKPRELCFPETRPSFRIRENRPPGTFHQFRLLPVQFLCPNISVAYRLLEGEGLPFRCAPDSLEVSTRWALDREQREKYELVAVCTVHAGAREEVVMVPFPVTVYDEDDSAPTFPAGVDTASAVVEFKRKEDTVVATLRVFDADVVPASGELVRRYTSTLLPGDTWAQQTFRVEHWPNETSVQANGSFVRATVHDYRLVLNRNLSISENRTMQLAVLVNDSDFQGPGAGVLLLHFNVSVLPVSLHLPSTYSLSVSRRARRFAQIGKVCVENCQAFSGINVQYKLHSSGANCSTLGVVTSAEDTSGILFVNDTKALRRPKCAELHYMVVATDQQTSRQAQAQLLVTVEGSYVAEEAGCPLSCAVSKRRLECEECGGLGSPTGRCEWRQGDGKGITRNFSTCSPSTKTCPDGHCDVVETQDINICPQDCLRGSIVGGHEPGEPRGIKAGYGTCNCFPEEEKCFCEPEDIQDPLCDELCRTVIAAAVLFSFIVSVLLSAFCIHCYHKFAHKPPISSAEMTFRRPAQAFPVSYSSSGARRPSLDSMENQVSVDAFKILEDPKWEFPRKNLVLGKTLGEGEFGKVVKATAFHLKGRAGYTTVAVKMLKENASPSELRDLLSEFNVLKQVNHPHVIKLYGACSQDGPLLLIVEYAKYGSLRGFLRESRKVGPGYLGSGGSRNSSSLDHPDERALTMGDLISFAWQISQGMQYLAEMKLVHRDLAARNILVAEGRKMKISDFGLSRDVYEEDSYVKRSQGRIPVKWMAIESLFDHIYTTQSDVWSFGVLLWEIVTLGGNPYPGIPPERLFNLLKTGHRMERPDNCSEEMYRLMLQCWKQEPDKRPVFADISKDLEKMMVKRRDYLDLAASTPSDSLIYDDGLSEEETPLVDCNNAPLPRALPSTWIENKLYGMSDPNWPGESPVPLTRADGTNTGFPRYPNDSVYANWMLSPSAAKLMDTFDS
pIC50: −log10 of the molar value.

>>> df
                            compound_string  observed_measurement
0  COc1cc(Nc2ncnc(-n3c(NCc4cccc(F)c4)nc4ccccc43)n2)cc(OC)c1OC                > 6.10
1  COc1cc(Nc2ncnc(Nc3ccc(O)cc3Cl)n2)cc(OC)c1OC          5.23 to 6.00
2  COc1ccc(Nc2ncnc(-n3c(N)nc4ccccc43)n2)cc1O                > 5.94

Task: Give pIC50 only, for COc1cc(Nc2ncnc(-n3c(N[C@@H](CO)c4ccccc4)nc4ccccc43)n2)cc(OC)c1OC , using UniProt:P07949 data.
Result: > 6.11

====

- Assayed Target: IGFR-1 (Homo sapiens, UniProt P08069)
- Construct: Kinases are expressed as either kinase domains or full length constructs; made in house
- Experiment Summary: Kinase inhibition assay (33P transfer), IGFR-1
- Type: biochemical
- Cond: Table 2, class symbols A-E
Parameter IC50: see the listing below.

Please review the entries below; each comes with its answer.
>>> df
                                   compound  measure  observed_measurement
0  COc1ccc(Nc2ncnc(N(C)CC(O)c3ccccc3)n2)cc1OC (stereo not shown)     IC50             > 11.8 µM
1  COC(=O)c1ccc(-c2cc(Nc3ncnc(Nc4cc(Cl)cc(Cl)c4)n3)[nH]n2)cc1     IC50       5.26 to 7.67 µM
2  CN(c1cccc(Cl)c1)c1ncnc(Nc2cccc(OC(F)(F)F)c2)n1     IC50             > 11.4 µM

Task: Provide IC50 value for the following compound: COC(=O)c1ccc(-c2cc(Nc3ncnc(Nc4cccc(Cc5nnn[nH]5)c4)n3)[nH]n2)cc1
Result: 0.852 to 5.11 µM

====

pIC50 data for Flt-1 (Homo sapiens, UniProt P17948) follow.
pIC50: −log10 of the molar value.

In [3]: df
Out[3]:
                                   molecule  observed_measurement
0  COc1cc(Nc2ncnc(Nc3cccc4ccccc34)n2)cc(OC)c1OC                < 4.95
1  COc1cc(Nc2ncnc(Nc3cccc(F)c3)n2)cc(OC)c1OC          5.19 to 5.97
2  COc1cc(Nc2ncnc(Nc3ccc(O)cc3)n2)cc(OC)c1OC                > 5.97
3  Nc1nc2ccccc2n1-c1ncnc(Nc2ccc(N3CCOCC3)cc2)n1          5.21 to 5.99
4  COc1cc(Nc2ncnc(-n3c(N)nc4ccccc43)n2)ccc1OCCn1ccnn1                > 6.05
5  COc1cc(Nc2ncnc(Nc3ccc(Br)cc3)n2)cc(OC)c1OC                > 6.03
6  COc1cc(Nc2ncnc(-n3cc(CC(N)=O)c4ccccc43)n2)cc(OC)c1OC                > 6.04
7  COc1cc(Nc2ncnc(-n3c(NC(C)C)nc4ccccc43)n2)cc(OC)c1OC          5.26 to 6.04

Task: Report the value of pIC50 obtained on Flt-1 (Homo sapiens, UniProt P17948) for COc1cc(Nc2ncnc(NC(=O)Nc3ccccc3)n2)cc(OC)c1OC .
Sequence (P17948 27-1338, species assumed): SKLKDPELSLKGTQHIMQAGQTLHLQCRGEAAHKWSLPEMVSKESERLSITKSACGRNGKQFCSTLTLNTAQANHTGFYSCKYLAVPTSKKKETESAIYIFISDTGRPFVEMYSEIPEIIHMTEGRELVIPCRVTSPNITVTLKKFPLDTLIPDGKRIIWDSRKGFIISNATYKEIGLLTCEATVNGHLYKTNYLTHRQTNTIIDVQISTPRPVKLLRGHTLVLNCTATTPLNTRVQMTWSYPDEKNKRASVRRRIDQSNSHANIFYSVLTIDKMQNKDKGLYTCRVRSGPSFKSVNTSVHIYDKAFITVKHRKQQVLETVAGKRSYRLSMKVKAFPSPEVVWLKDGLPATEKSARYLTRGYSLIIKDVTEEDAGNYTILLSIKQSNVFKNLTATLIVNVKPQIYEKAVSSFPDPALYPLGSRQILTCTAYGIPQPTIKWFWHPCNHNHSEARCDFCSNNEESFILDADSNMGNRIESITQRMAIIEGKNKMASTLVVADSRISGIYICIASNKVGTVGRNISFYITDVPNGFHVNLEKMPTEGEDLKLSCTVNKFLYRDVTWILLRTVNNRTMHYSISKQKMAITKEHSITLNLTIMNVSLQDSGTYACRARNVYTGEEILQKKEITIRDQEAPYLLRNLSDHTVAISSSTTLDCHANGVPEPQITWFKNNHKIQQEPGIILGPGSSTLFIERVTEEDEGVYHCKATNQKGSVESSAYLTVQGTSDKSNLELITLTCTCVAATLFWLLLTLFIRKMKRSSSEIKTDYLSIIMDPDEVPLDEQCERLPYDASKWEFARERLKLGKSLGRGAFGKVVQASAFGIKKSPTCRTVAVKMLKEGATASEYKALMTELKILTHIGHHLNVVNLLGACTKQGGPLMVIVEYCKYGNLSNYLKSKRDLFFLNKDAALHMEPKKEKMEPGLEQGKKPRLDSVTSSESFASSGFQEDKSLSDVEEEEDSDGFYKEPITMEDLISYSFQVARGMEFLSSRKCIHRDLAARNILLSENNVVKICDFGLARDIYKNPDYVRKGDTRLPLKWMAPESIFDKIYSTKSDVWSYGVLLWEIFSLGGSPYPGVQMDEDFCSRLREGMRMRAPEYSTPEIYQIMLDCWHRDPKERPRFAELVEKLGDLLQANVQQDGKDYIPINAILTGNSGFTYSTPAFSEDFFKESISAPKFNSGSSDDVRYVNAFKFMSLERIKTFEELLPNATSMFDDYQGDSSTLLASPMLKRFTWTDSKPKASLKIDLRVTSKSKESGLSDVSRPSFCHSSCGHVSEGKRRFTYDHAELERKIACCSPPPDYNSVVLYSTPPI
Result: < 4.94

Task: Specify the recorded pIC50 for COc1ccc(Nc2ncnc(Nc3ccc(C)c(O)c3)n2)cc1OC , system: Flt-1 (Homo sapiens, UniProt P17948).
Result: > 5.95

Task: Look up Flt-1 (Homo sapiens, UniProt P17948) data: pIC50 of COc1ccc(Sc2ncnc(Nc3cc(OC)c(OC)c(OC)c3)n2)cc1 , then report it.
Result: 5.06 to 5.22

Task: Look up and report pIC50, with Flt-1 (Homo sapiens, UniProt P17948) as system, for COc1cc(Nc2ncnc(NC3CC3c3ccccc3)n2)cc(OC)c1OC (stereo not drawn)
Result: < 4.94

Task: Print Flt-1 (Homo sapiens, UniProt P17948) pIC50 for COc1cc(Nc2ncnc(Nc3cccc(Cl)c3)n2)cc(OC)c1OC .
Result: < 4.94

Task: Given COc1cc(Nc2ncnc(Nc3cccc(Br)c3)n2)cc(OC)c1OC , report its pIC50 on Flt-1 (Homo sapiens, UniProt P17948).
Result: < 4.98

src = patent US7074789B2
